Recorded values, source ChEMBL document CHEMBL4312009.

# Test system: GTPase KRas (Homo sapiens), P01116 [UNDEFINED MUTATION]
# Sequence (P01116 whole entry, looked up, change not shown): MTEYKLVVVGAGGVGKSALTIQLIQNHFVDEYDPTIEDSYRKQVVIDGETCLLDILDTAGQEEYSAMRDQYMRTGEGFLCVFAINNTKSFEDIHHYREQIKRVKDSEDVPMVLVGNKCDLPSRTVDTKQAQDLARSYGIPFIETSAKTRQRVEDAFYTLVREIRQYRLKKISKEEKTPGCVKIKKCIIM
# protocol: Inhibition of KRas mutant in human DLD1 cells assessed as cell viability by measuring ATP at 20 uM relative to control
# Type: cell-based
parameterMeasured: inhibition (%)
Note: unit % is implicit; provide only the numeric part.

Consider the reported inhibition for these compounds:
[
  {
    "smilesData": "CCCCCCc1c2c(c(C)c3c1C(=O)OC3)Oc1ccccc1O2",
    "inhibition [%]": 112
  },
  {
    "smilesData": "CCCCCCc1c2c(c(C)c3c1C(=O)SC3)Oc1ccccc1O2",
    "inhibition [%]": 90
  }
]

According to the records, this compound `Cc1c2c(c(CCCCBr)c3c1Oc1ccccc1O3)C(=O)OC2` displays inhibition of 76

inhibition measured on `CCCCCc1c2c(c(C)c3c1C(=O)OC3)Oc1ccccc1O2` = 120

Summary for this compound, `Cc1c2c(c(CCCCBr)c3c1C(=O)OC3)Oc1ccccc1O2` : inhibition is 20

====

# Lookup of reported inhibition keyed by entry
# System: GTPase KRas (Homo sapiens), P01116 [UNDEFINED MUTATION]
# protocol: Inhibition of KRas mutant in human HCT116 cells assessed as cell viability by measuring ATP at 20 uM relative to control
# Assay type: cell-based
Express it in %; write the number only.

Below, 3 compounds whose answers are already recorded.
[
  {
    "smilesData": "CCCCc1c2c(c(C)c3c1Oc1ccccc1O3)C(=O)OC2",
    "testSystem": "GTPase KRas (Homo sapiens), P01116 [UNDEFINED MUTATION]",
    "readoutUnits": "%",
    "inhibition": 38
  },
  {
    "smilesData": "CCCCCc1c2c(c(C)c3c1Oc1ccccc1O3)C(=O)OC2",
    "testSystem": "GTPase KRas (Homo sapiens), P01116 [UNDEFINED MUTATION]",
    "readoutUnits": "%",
    "inhibition": 35
  },
  {
    "smilesData": "CCCCCCc1c2c(c(C)c3c1Oc1ccccc1O3)C(=O)OC2",
    "testSystem": "GTPase KRas (Homo sapiens), P01116 [UNDEFINED MUTATION]",
    "readoutUnits": "%",
    "inhibition": 15
  }
]

`CCCCCCc1c2c(c(C)c3c1C(=O)SC3)Oc1ccccc1O2` has a reported inhibition of 40

For record `Cc1c2c(c(CCCCBr)c3c1C(=O)OC3)Oc1ccccc1O2` the listed inhibition is 108

Reported inhibition for `CCCCCc1c2c(c(C)c3c1Oc1cc(OC)ccc1O3)C(=O)OC2` was 26

====

# Tested on: GTPase KRas (Homo sapiens), P01116 [UNDEFINED MUTATION]
# protocol: Inhibition of KRas mutant in human SW480 cells assessed as cell viability by measuring ATP at 2 uM relative to control
# Assay type: cell-based
TRUE means recorded inhibition is 20% or above; FALSE means it is below 20%.

[
  {
    "smilesData": "CCCCc1c2c(c(C)c3c1Oc1ccccc1O3)C(=O)OC2",
    "discreteLabel": "FALSE"
  }
]

Query: Does `Cc1c2c(c(CCCCBr)c3c1Oc1ccccc1O3)C(=O)OC2` have a reported inhibition of at least 20%?
Result: TRUE

Query: Does inhibition meet or surpass 20% for `Cc1c2c(c(CCCCBr)c3c1C(=O)OC3)Oc1ccccc1O2` ?
Result: FALSE

Query: Hi, just wondering whether `CCCCCc1c2c(c(C)c3c1C(=O)OC3)Oc1ccc(OC)cc1O2` shows inhibition of 20% or higher.
Result: FALSE

Query: // inclusive: inhibition at least 20%? input: `CCCCCCc1c2c(c(C)c3c1C(=O)OC3)Oc1ccccc1O2`
Result: TRUE

Query: # check: inhibition of `CCCCCc1c2c(c(C)c3c1C(=O)OC3)Oc1ccccc1O2` is greater than or equal to 20%
Result: TRUE

Query: Hi team, for `CCCCCCc1c2c(c(C)c3c1Oc1ccccc1O3)C(=O)OC2` , is the recorded inhibition at or above 20%?
Result: FALSE

====

# testSystem: Angiopoietin-like protein 8 (Homo sapiens) (UniProt Q6UXH0)
# Sequence (Q6UXH0 whole entry): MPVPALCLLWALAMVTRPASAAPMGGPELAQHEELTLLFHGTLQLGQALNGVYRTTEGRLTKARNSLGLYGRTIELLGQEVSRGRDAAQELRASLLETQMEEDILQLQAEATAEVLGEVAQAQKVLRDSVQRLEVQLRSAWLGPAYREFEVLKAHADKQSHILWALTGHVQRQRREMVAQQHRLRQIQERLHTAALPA
# protocol: Inhibition of human Angptl8 at 40 uM relative to control
parameterMeasured: inhibition

Illustrative cases are given below, each with its answer.
[
  {
    "smilesData": "Cc1c2c(c(CCCCBr)c3c1Oc1ccccc1O3)C(=O)OC2",
    "inhibition": "67%"
  },
  {
    "smilesData": "CCCCCCc1c2c(c(C)c3c1Oc1ccccc1O3)C(=O)SC2",
    "inhibition": "27%"
  },
  {
    "smilesData": "CCCCCc1c2c(c(C)c3c1C(=O)OC3)Oc1ccccc1O2",
    "inhibition": "89%"
  },
  {
    "smilesData": "CCCCc1c2c(c(C)c3c1Oc1ccccc1O3)C(=O)OC2",
    "inhibition": "15%"
  },
  {
    "smilesData": "Cc1c2c(c(CCCCBr)c3c1C(=O)OC3)Oc1ccccc1O2",
    "inhibition": "37%"
  }
]

Response field inhibition (Angiopoietin-like protein 8 (Homo sapiens) (UniProt Q6UXH0)) for item `CCCCc1c2c(c(C)c3c1C(=O)OC3)Oc1ccccc1O2` : 93%

Tested system Angiopoietin-like protein 8 (Homo sapiens) (UniProt Q6UXH0); inhibition recorded for `CCCCCCc1c2c(c(C)c3c1Oc1ccccc1O3)C(=O)OC2` was 24%

Angiopoietin-like protein 8 (Homo sapiens) (UniProt Q6UXH0) data for `CCCCCCc1c2c(c(C)c3c1C(=O)SC3)Oc1ccccc1O2` ; its inhibition: 31%

// assay Angiopoietin-like protein 8 (Homo sapiens) (UniProt Q6UXH0), entry `CCCCCc1c2c(c(C)c3c1C(=O)OC3)Oc1ccc(OC)cc1O2` , inhibition value = 59%

Result for `CCCCCc1c2c(c(C)c3c1Oc1cc(OC)ccc1O3)C(=O)OC2` , tested on Angiopoietin-like protein 8 (Homo sapiens) (UniProt Q6UXH0), inhibition: 34%

With Angiopoietin-like protein 8 (Homo sapiens) (UniProt Q6UXH0) as the test system, `CCCCCCc1c2c(c(C)c3c1C(=O)OC3)Oc1ccccc1O2` showed inhibition of 86%

====

# testSystem: Proprotein convertase subtilisin/kexin type 9 (Homo sapiens)
# protocol: Inhibition of human PCSK9 at 40 uM relative to control
Ranges used to classify inhibition: low (below 20%), middle (20% to below 40%), high (40% or more)

Query: Category of `CCCCCCc1c2c(c(C)c3c1C(=O)SC3)Oc1ccccc1O2` :
Result: middle

Query: State the band of `CCCCCCc1c2c(c(C)c3c1C(=O)OC3)Oc1ccccc1O2`
Result: high

Query: Which band does `CCCCc1c2c(c(C)c3c1C(=O)OC3)Oc1ccccc1O2` fall in?
Result: high

Query: Category of `CCCCCCc1c2c(c(C)c3c1Oc1ccccc1O3)C(=O)SC2` , please.
Result: low

Query: GET /class?item= `CCCCCc1c2c(c(C)c3c1C(=O)OC3)Oc1ccccc1O2`
Result: high

Query: Sort `CCCCCc1c2c(c(C)c3c1C(=O)OC3)Oc1ccc(OC)cc1O2` into one of the categories.
Result: high

Query: Into which category would you place `CCCCCc1c2c(c(C)c3c1Oc1cc(OC)ccc1O3)C(=O)OC2` ?
Result: low

Query: Band for `CCCCCCc1c2c(c(C)c3c1Oc1ccccc1O3)C(=O)OC2` ?
Result: low

Query: Which band does `CCCCc1c2c(c(C)c3c1Oc1ccccc1O3)C(=O)OC2` fall in?
Result: low

Query: Note: place this compound into its band. Item: `Cc1c2c(c(CCCCBr)c3c1Oc1ccccc1O3)C(=O)OC2`
Result: middle

====

# Test system: CYP1A1
# protocol: Selectivity index, ratio of IC50 of cytotoxicity against CHO cells to IC50 for bioactivation in CYP1A1 (unknown origin) transfected CHO cells assessed as CYP1A1-mediated drug activation by measuring reduction in cell viability
# Type: cell-based
# conditionSet: hamster, CHO cells and CYP1A1-transfected CHO cells; read-out: Ratio IC50
parameterMeasured: selectivity ratio
In your answer, state the number alone without any accompanying words.

[
  {
    "smilesData": "CCCCc1c2c(c(C)c3c1C(=O)OC3)Oc1ccccc1O2",
    "testSystem": "CYP1A1",
    "parameterMeasured": "selectivity ratio",
    "numericResult": 3.7
  },
  {
    "smilesData": "CCCCCCc1c2c(c(C)c3c1C(=O)OC3)Oc1ccccc1O2",
    "testSystem": "CYP1A1",
    "parameterMeasured": "selectivity ratio",
    "numericResult": 0.6
  }
]

Reported selectivity ratio ( `Cc1c2ccncc2c(C)c2c1[nH]c1ccccc12` ) = 15.6

====

# Tested on: GTPase KRas (Homo sapiens), P01116 [UNDEFINED MUTATION]
# protocol: Inhibition of KRas mutant in human HCT116 cells […] assessed as cell viability by measuring ATP at 0.2 uM relative to control
# Assay type: cell-based
Where inhibition equals or exceeds 30%, the correct label is Condition met; where it does not, the label is Condition not met.

Please review the entries below; each comes with its answer.
[
  {
    "smilesData": "Cc1c2c(c(CCCCBr)c3c1C(=O)OC3)Oc1ccccc1O2",
    "discreteLabel": "Condition not met"
  },
  {
    "smilesData": "CCCCCc1c2c(c(C)c3c1C(=O)OC3)Oc1ccccc1O2",
    "discreteLabel": "Condition not met"
  },
  {
    "smilesData": "Cc1c2c(c(CCCCBr)c3c1Oc1ccccc1O3)C(=O)OC2",
    "discreteLabel": "Condition not met"
  },
  {
    "smilesData": "CCCCCCc1c2c(c(C)c3c1Oc1ccccc1O3)C(=O)OC2",
    "discreteLabel": "Condition not met"
  },
  {
    "smilesData": "CCCCCCc1c2c(c(C)c3c1C(=O)OC3)Oc1ccccc1O2",
    "discreteLabel": "Condition met"
  }
]

Query: Quick check: does `CCCCCc1c2c(c(C)c3c1Oc1ccccc1O3)C(=O)OC2` have inhibition greater than or equal to 30%?
Result: Condition met

Query: Hello, I need to know if `CCCCc1c2c(c(C)c3c1C(=O)OC3)Oc1ccccc1O2` has measured inhibition not below 30%. Thanks!
Result: Condition met

Query: Assess whether reported inhibition for `CCCCCc1c2c(c(C)c3c1C(=O)OC3)Oc1ccc(OC)cc1O2` sits at 30% or higher.
Result: Condition met
